molecular target: C7orf11; assay: pooled miR-30 sensor sort-seq; sequence = guide strand; conditions: shRNA; also: reference of the scale not given here
Readout Kind: sensor-assay potency score (higher = more potent)
Lab note: record just the number, no unit beside it.

These recorded examples may help you get a feel for the data.
TTTTTCTCTAACACGCCCTGAT | 0.0567
TTGAGTATTGCTGTATTGTTGG | -0.097
TAAATGTTGCAAGTTATCCTAC | 0.0898
TTTTTTCTCTAACACGCCCTGA | -0.403
TTCTTTTTTCTCTAACACGCCC | -0.504
TCCAACTCATTAGACATTCTTT | -1.12
TAATTATCCAATCAAAGTCATC | -1.65

Request the reported sensor-assay potency score (higher = more potent) associated with TTATATCCACTACAGATACTGG
-1.05
